These measurements were taken from patent US20100061982A1.

Protocol Text: Microsome Stability (15 min), human
Assay type: in vitro ADME
Condition Details: microsomes, value after the slash in Table VIc, read-out: Microsome Stability (15 min) T ½ human, second value of cell
Assign met to entries whose half-life meets or exceeds 6 min; assign not met to the rest.

Decide: is the reported value of half-life for "COc1ccc2c(c1)c(/C=C1\Oc3cc(O)cc(O)c3C1=O)cn2CCCN(C)C" equal to or greater than 6 min? met

Now consider "COc1ccc2c(c1)c(/C=C1\Oc3cc(O)cc(O)c3C1=O)c(C)n2CCN1CCN(C)CC1" and answer again. met

Now consider "COc1ccc2[nH]c(-c3ccccc3)c(/C=C3\Oc4cc(O)ccc4C3=O)c2c1" and answer again. not met

Now consider "COc1ccc2c(c1)c(/C=C1\Oc3cc(O)ccc3C1=O)c(C)n2CCN1CCN(C)CC1" and answer again. not met

Now consider "Cn1cc(/C=C2\Oc3cccc(O)c3C2=O)c2c(N3CC4CCC(C3)O4)ccnc21" and answer again. not met

Now consider "COc1ccc2[nH]c(-c3ccccc3)c(C=C3Oc4cc(O)cc(O)c4C3=O)c2c1" and answer again. not met
